B1: TPR t1 (parent)
chain: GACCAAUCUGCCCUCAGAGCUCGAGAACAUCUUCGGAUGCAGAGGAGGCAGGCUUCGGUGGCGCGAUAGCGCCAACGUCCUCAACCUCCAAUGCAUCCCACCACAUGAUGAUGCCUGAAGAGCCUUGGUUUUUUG

variants of: B1; experiment: polymerase ribozyme fitness, log enrichment relative to wild type (log ratio); higher = more active; in vitro selection for triplet polymerase activity
# polymerase ribozyme fitness (log ratio) >= -2 gives TRUE, anything below gives FALSE

Q) Record G42A G48C C62A A119U C124A ; criterion: polymerase ribozyme fitness (log ratio) no lower than -2. Met?
A) FALSE

Q) Follow-up item: C34A G58C
A) FALSE

Q) # repeat for A46G G47U G120U U132A
A) TRUE

Q) // same read-out, input: A26U U130A
A) FALSE

Q) Try A27U U54A U112C G122A next.
A) FALSE

Q) Now the same for C88A C97U U109A G110C
A) FALSE

Q) # repeat for A83G G93A G120U
A) TRUE

Q) Also check C12G C31U C49U G51U C70U C101A U109G
A) FALSE

Q) Param item: G48U C82U
A) TRUE

Q) Next: A26U G39C G47A C82A A118U
A) FALSE
